B1: library; a variant is named by its letters at N, in order (parent)
chain: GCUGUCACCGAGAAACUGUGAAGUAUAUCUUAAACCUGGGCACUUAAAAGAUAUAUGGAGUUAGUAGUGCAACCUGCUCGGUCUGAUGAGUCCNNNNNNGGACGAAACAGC

Variants of: B1
Assay: normalized RNA/DNA level with ligand (relative to sTRSVctl = 100) (log10 (% of sTRSVctl)); HEK293T; ligand: cyclic di-GMP (c-di-GMP-II aptamer); ligand concentration (+) RNA-Seq: 1 mM; higher = less ribozyme self-cleavage, higher mRNA level
Conditions: reporter: mCherry (pCS4076), ligand present: yes
Property: normalized RNA/DNA level with ligand (log10)

Mutation Code | Recorded Value
CGUUAG | 1.89
UCGAGA | 1.71
CCUUCU | 1.8
AUAUUG | 1.78
CAUAAA | 1.42
UUCCUA | 1.83
GAUACG | 1.76
UGUAUA | 1.87
GUACAU | 1.79
GACGGU | 1.8
GUAUGC | 1.75
